Experiment: amyloid nucleation score (Sup35N fusion, yeast selection) (log enrichment); library NNK1; higher = more nucleation; inactive = no reads after selection;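 note: zero at mode of non-aggregating sequences after 7 days selection at 30°C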
quantity: amyloid nucleation score

polymer.sequence | result
IAVFRYFDSYRPFTRVSVLF | inactive
ANAELVYNRLFRSTNPLGCV | inactive
KVSEDMYSHFQQSFSQAIIV | inactive
AVFGTIIESFMSGG | 0.399

----------
Catalogue of amyloid nucleation score readings, one per entry.
Test: amyloid nucleation score (Sup35N fusion, yeast selection) (log enrichment); library NNK1; higher = more nucleation; inactive = no reads after selection
Could you keep your reply to the number by itself?

substance | quantitative.readout
SSKVERG | -0.139
WTRIDSSVYARKGFCAPRLP | 0.021
MEPYYVRNSCFCRIRDRNF | -0.21
ESIVRFKSSRSDKI | 2.86
PSSACCGSHFLCEQEFMICY | 0.146

Moving on to the next substance.
Task: Sample GVDGFWRMVSKLPHGRLDQH — what was its amyloid nucleation score?
Result: -0.123
